Assay: Tissue distribution after oral administration
Type: in vivo
Details: male, SD, rat, abdominal adipose tissue/plasma, 30 mg/kg
Observable: Kp at 4 h
// response body must contain only the number

# input I am curious: what Kp at 4 h value has been reported for COc1ccc2c(=O)n(C)c(-c3ccccc3)nc2c1 ?
# output 235

----------
Assay: Tissue distribution after oral administration
Format: in vivo
Settings: male, SD, rat, abdominal adipose tissue/plasma, 30 mg/kg
Observable: Kp at 2 h
Please give only the number in your answer, with no unit.

# input Param item = COc1ccc2c(=O)n(C)c(-c3ccccc3)nc2c1 ; retrieve measured Kp at 2 h.
# output 22.8

----------
Test: Tissue distribution after oral administration
Format: in vivo
Conditions: male, SD, rat, abdominal adipose tissue/plasma, 30 mg/kg
Observable: Kp at 0.5 h
# respond with the number and nothing more

# input Any idea what its Kp at 0.5 h is? The compound is COc1ccc2c(=O)n(C)c(-c3ccccc3)nc2c1 [Compound 7]
# output 30.1

----------
Test: Tissue distribution after oral administration
Format: in vivo
Conditions: male, SD, rat, liver/plasma, 30 mg/kg
Observable: Kp at 0.25 h
Number only, no unit.

# input Give the measured Kp at 0.25 h of COc1ccc2c(=O)n(C)c(-c3ccccc3)nc2c1 .
# output 58.9

----------
Assay: Tissue distribution after oral administration
Format: in vivo
Conditions: male, SD, rat, liver/plasma, 30 mg/kg
Observable: Kp at 2 h
Quick one: just the number, no unit, thanks!

# input Consider the compound shown here: COc1ccc2c(=O)n(C)c(-c3ccccc3)nc2c1 [Compound 7] What is its recorded Kp at 2 h?
# output 28.6

----------
Assay: Tissue distribution after oral administration
Format: in vivo
Settings: male, SD, rat, liver/plasma, 30 mg/kg
Observable: Kp at 0.5 h
Please state the value as a number alone, without comment.

# input Bench note: what Kp at 0.5 h did COc1ccc2c(=O)n(C)c(-c3ccccc3)nc2c1 [Compound 7] show?
# output 39.8

----------
Assay: Pharmacokinetics in SD rats
Assay type: in vivo, rat
Settings: male, Sprague-Dawley, rat, plasma, po, 10 mg/kg, AUC(0-∞), SD rat, PO 10 mg/kg
Observable: AUC(0-inf)
Your answer should be a number followed by the unit of measure.

# input Item COc1ccc2c(=O)n(C)c(-c3ccccc3)nc2c1 has what recorded AUC(0-inf)?
# output 383 ng·h/mL

----------
Molecular target: ERRα-LBD (Homo sapiens, UniProt P11474)
Sequence (P11474 193-421 limits assumed, species assumed): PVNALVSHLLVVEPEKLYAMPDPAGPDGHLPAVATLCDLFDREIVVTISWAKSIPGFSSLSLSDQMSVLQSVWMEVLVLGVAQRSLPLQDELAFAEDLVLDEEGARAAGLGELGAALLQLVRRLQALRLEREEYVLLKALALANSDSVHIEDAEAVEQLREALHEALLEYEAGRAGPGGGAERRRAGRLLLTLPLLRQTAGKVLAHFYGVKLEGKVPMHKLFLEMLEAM
Assay: AlphaScreen assay, interaction of ERRα-LBD with PGC1α peptide
Observable: EC50

# input Need EC50, item COc1ccc2c(=O)n(C)c(-c3ccccc3)nc2c1
# output 86 nM

----------
Assay: Pharmacokinetics in SD rats
Format: in vivo, rat
Conditions: male, Sprague-Dawley, rat, plasma, po, 10 mg/kg
Observable: Tmax
Include the unit right after the number.

# input Sample COc1ccc2c(=O)n(C)c(-c3ccccc3)nc2c1 — what was its Tmax?
# output 15 min

----------
Assay: Pharmacokinetics in SD rats
Type: in vivo, rat
Conditions: male, Sprague-Dawley, rat, plasma, po, 10 mg/kg
Observable: Cmax
Report field: quantity (unit follows the number).

# input Record request: Cmax value, item COc1ccc2c(=O)n(C)c(-c3ccccc3)nc2c1
# output 531 ng/mL
